Some compounds, each annotated with its measured pIC50.
tested on: NCI-H1299 cells; experiment: CCK-8 assay, NCI-H1299 cells; format: cell-based, human; conditions: Homo sapiens, NCI-H1299; CCK-8, 48 h, mean ± SD, n = 3
Lab note: report pIC50 as minus log10 of the concentration in molar units, number only.

Here are 8 compounds together with their reported answers.
COc1cc2ncnc(Nc3cccc(-c4cn(-c5cccc6c5C(=O)N(C5CCC(=O)NC5=O)C6=O)nn4)c3)c2cc1OCCCN1CCOCC1 (stereo not drawn) [Compound 4j]: 4.92
COc1cc2ncnc(Nc3cccc(-c4cn(Cc5ccc(C)cc5)nn4)c3)c2cc1OCCCN1CCOCC1 [Compound 4n]: 5.23
COc1cc2ncnc(Nc3cccc(-c4cn(-c5cccc(F)c5)nn4)c3)c2cc1OCCCN1CCOCC1 [Compound 4i]: 5.03
COc1cc2ncnc(Nc3cccc(-c4cn(Cc5cc(Br)cc(Br)c5)nn4)c3)c2cc1OCCCN1CCOCC1 [Compound 4m]: 5.32
COc1cc2ncnc(Nc3cccc(-c4cn(Cc5ccc(F)c(Cl)c5)nn4)c3)c2cc1OCCCN1CCOCC1 [Compound 4a]: 5.12
COc1cc2ncnc(Nc3cccc(-c4cn(Cc5ccc(Br)cc5)nn4)c3)c2cc1OCCCN1CCOCC1 [Compound 4k]: 5.15
COc1cc2ncnc(Nc3cccc(-c4cn(Cc5ccccc5C#N)nn4)c3)c2cc1OCCCN1CCOCC1 [Compound 4l]: 5.27
COc1cc2ncnc(Nc3cccc(-c4cn(-c5ccc([N+](=O)[O-])c(C)c5)nn4)c3)c2cc1OCCCN1CCOCC1 [Compound 4f]: 4.88

# compound COc1cc2ncnc(Nc3cccc(-c4cn(Cc5cccc(F)c5)nn4)c3)c2cc1OCCCN1CCOCC1 [Compound 4c] ; its pIC50 = 5.34
